Test system: Human immunodeficiency virus
Assay: Antiviral activity against HIV harboring reverse transcriptase Y181C mutant by cell based assay
Type: functional, organism-based
Conditions: Human immunodeficiency virus 1
pEC50: −log10 of the molar value.
measurementName: pEC50

> print(dat)
                                  smilesstr                    testsystem  censoringsign  testresult
1           Cc1ccnc2c1NC(=O)c1cccnc1N2C1CC1  Human immunodeficiency virus              <        5.00
2  CCN1c2ncc(CCc3ccc(OC)cc3)cc2C(=O)N(C)c2cccnc21  Human immunodeficiency virus              =        5.90
3  O=C1Nc2ccc(Cl)cc2[C@@](C#CC2CC2)(C(F)(F)F)O1  Human immunodeficiency virus              =        8.80
4  CCN1c2ncc(CCc3ccc(O)cc3)cc2C(=O)N(C)c2cccnc21  Human immunodeficiency virus              =        6.17
5  CCOP(=O)(OCC)c1ccc(OCCc2cnc3c(c2)C(=O)N(C)c2cccnc2N3CC)c(C)c1  Human immunodeficiency virus              =        8.05
6  CCN1c2ncc(CCOc3ccc(C(=O)O)cc3C)cc2C(=O)N(C)c2cccnc21  Human immunodeficiency virus              =        7.28
7  CCN1c2ncc(CCOc3ccc(P(=O)(O)O)cc3C)cc2C(=O)N(C)c2cccnc21  Human immunodeficiency virus              <        5.30
8  CCOP(=O)(COc1ccc(CCc2cnc3c(c2)C(=O)N(C)c2cccnc2N3CC)cc1)OCC  Human immunodeficiency virus              =        6.63
9  CCOP(=O)(COc1ccc(CNc2cnc3c(c2)C(=O)N(C)c2cccnc2N3CC)cc1)OCC  Human immunodeficiency virus              =        7.03

---

System: Human immunodeficiency virus
Assay: Ratio of EC50 for HIV harboring reverse transcriptase Y181C mutant to EC50 for wild type HIV
Format: functional
measurementName: Ratio EC50

> print(dat)
                                  smilesstr  measurementname  censoringsign  testresult
1  CCOP(=O)(COc1ccc(CNc2cnc3c(c2)C(=O)N(C)c2cccnc2N3CC)cc1)OCC       Ratio EC50              =           9
2  CCOP(=O)(OCC)c1ccc(OCCc2cnc3c(c2)C(=O)N(C)c2cccnc2N3CC)c(C)c1       Ratio EC50              =           3
3  CCN1c2ncc(CCOc3ccc(P(=O)(O)O)cc3C)cc2C(=O)N(C)c2cccnc21       Ratio EC50              >           5
4           Cc1ccnc2c1NC(=O)c1cccnc1N2C1CC1       Ratio EC50              >         100
5  CCN1c2ncc(CCc3ccc(OC)cc3)cc2C(=O)N(C)c2cccnc21       Ratio EC50              =          13
6  CCOP(=O)(COc1ccc(CCc2cnc3c(c2)C(=O)N(C)c2cccnc2N3CC)cc1)OCC       Ratio EC50              =           7
7  CCN1c2ncc(CCc3ccc(O)cc3)cc2C(=O)N(C)c2cccnc21       Ratio EC50              =          16
8  CCN1c2ncc(CCOc3ccc(C(=O)O)cc3C)cc2C(=O)N(C)c2cccnc21       Ratio EC50              =           7
9  O=C1Nc2ccc(Cl)cc2[C@@](C#CC2CC2)(C(F)(F)F)O1       Ratio EC50              =           3
